koff values for the binders below.
# Assay target: T1, recombinant human interleukin 12 (p40/p35 heterodimer) (human, UniProt P29460 23-328; P29459 23-219)
# T1 chain 1: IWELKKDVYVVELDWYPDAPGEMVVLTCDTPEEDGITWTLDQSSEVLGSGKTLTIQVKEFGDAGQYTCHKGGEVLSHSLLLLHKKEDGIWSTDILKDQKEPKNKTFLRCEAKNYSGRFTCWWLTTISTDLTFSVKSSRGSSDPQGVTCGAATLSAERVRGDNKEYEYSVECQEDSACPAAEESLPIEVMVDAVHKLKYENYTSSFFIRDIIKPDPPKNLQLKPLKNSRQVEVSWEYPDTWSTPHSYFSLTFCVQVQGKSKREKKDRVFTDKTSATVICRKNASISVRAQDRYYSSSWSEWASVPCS
# T1 chain 2: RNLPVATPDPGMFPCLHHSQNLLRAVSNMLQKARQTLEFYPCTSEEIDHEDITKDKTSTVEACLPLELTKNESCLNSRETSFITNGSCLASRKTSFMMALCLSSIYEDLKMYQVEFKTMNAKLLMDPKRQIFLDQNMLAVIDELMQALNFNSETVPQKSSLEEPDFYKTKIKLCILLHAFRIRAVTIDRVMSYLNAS
# Experiment: BIAcore; unmutated
Answer with the value and then the unit.

Illustrative cases are given below, each with its answer.
>>> print(df.to_string())
                  binder        result
0  FTFSSYGMH [Y61 H32 Y]  0.000337 s⁻¹
1  FTFSSYGMH [Y61 H33 G]  0.000178 s⁻¹
2  FTFSSYGMH [Y61 H31 S]  0.000249 s⁻¹

Complete the entry with koff for FTFSSYGMH [Y61 H30 S]
0.000168 s⁻¹
